recorded.endpoint: melting point

Field: example entries. Status: answers known.
COC(=O)c1cc(Cl)cnc1NCc1ccccc1	77 to 79 °C
CC(=Cc1c[nH]c2ccc(CNS(C)(=O)=O)cc12)[N+](=O)[O-]	201 to 202 °C
CC1Nc2ccccc2N(Cc2ccccc2)C(=O)C1Cc1ccccc1 (stereo not given)	140 to 141 °C
CCOC(=O)CNc1nc(Cl)ccc1[N+](=O)[O-]	77.5 to 80 °C
O=C1NC(CC(=O)C2CC2)c2cccn2-c2sccc21 (stereo not given)	200 °C

COC(=O)c1cccc(Nc2nccc(-c3ccnc(NCCCO)c3)n2)c1 yielded melting point of 162 to 163 °C

O=C(O)Cc1cccc(NC(=O)NCC(=O)N2[C@@H](c3ccccc3)CC[C@H]2c2ccccc2)c1 yielded melting point of 152 °C

O=C(O)C1=Cc2cc(Cl)cc(Br)c2OC1C(F)(F)F (stereo not given) yielded melting point of 228 to 229 °C

O=c1[nH]c(N2CCOCC2)nc2c1CC(S(=O)(=O)c1ccccc1)CC2 (stereo not given) yielded melting point of > 250 °C

O=C(c1ccc(Cl)cc1)c1cccc(Br)n1 yielded melting point of 83.5 to 84 °C

Reference source for all entries: a melting point compilation (Tetko et al.; mined from patent text by program, amines drawn as free bases though some values may be those of a salt)
